Target: IDO (Homo sapiens, UniProt P14902)
Sequence (P14902 whole entry): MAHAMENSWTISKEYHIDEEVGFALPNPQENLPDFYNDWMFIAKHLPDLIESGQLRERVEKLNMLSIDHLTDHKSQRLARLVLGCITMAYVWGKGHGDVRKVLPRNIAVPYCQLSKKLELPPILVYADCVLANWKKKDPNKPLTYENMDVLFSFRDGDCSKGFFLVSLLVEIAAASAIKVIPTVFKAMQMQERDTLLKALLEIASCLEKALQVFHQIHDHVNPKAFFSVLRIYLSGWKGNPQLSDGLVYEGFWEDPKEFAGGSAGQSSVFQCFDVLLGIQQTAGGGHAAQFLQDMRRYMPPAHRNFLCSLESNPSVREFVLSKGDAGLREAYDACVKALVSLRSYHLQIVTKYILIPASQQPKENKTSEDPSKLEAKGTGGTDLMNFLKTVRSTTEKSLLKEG
Assay: SKOV3 kynurenine cell-based assay (IDO induced by IFN-γ)
Set-up: IDO expression was induced in the SKOV3 cells by the addition of 500 ng/ml IFN-γ; endogenous in cells; host or cells: SKOV3 (human ovarian adenocarcinoma), induced with IFN-γ
Settings: SKOV3 human ovarian adenocarcinoma cells, 500 ng/ml IFN-γ, 48 hours, 500 μM L-tryptophan; read-out: SKOV3 Kynurenine cell based assay pIC50 (converted)
observed_property: IC50

compound	observed_property	value
CC(C)S(=O)(=O)N1CCC(c2cc(Cl)cc3[nH]ncc23)CC1 [Compound 141]	IC50	3.24 to 31.6 µM

Query string: # IC50 lookup, item CC(=O)Nc1cc(N2CCN(S(C)(=O)=O)C(C)(C)C2)c2cn[nH]c2c1 [Compound 312]
Result string: > 100 µM

Query string: Next compound: CC1(C)CN(c2cc(Cl)cc3[nH]ncc23)CCC1NS(C)(=O)=O (centres unmarked) [Compound 336]
Result string: 3.24 to 31.6 µM

Query string: Next compound: O=C(O)c1ccc(-c2cc(Cl)cc3[nH]ncc23)cc1 [Compound 253]
Result string: > 100 µM

Sourced from patent US10590086B2
